- System: EU-1
- protocol notes: WST cytotoxicity assay, cancer cell EU-1
- Format: cell-based, human
- experimental context: Homo sapiens, EU-1, EU-1; no other cell line named in the cell; read-out: Cancer cell (EU-1) cytotoxicity IC50
value type: pIC50
Keep it numeric: pIC50 is minus log10 of the concentration in mol/L.

CCc1cccc(NS(=O)(=O)c2ccc3nc(-c4cccc(C(=O)C(C)C)c4)c(OC)cc3c2)c1	5.44
Cc1ccc(NS(=O)(=O)c2ccc3c(c2)C2OCC[C@H]2C(c2ccc(C(O)C(C)C)cc2)N3)cc1C (stereo in doubt)	5.70

As a next step, examine the molecule that follows.
INPUT: What value of pIC50 has been recorded for this entry: C=CC(=O)c1ccc(C2Nc3ccc(S(=O)(=O)Nc4ccc(C)c(C)c4)cc3[C@H]3OCC[C@@H]23)cc1 (stereo partly drawn)
OUTPUT: 4.52

The reported measurements were obtained from patent US20240059658A1.
